# Lookup of reported OD450 keyed by entry
# tested-on: T1, human MSLN-R2-his protein (human, UniProt Q13421 391-486)
# T1 construct: Region 2 of human mesothelin, made in HEK293E cells, His-tagged; also called human MSLN-R2 protein; hMSLN-R2-his; not shown: His tag
# assay-details: ELISA on coated MSLN-R2; antibody 0.1 nM

binder	OD450
S009-F8-18.9 (antibody, human IgG1, kappa, V domains shown) VH: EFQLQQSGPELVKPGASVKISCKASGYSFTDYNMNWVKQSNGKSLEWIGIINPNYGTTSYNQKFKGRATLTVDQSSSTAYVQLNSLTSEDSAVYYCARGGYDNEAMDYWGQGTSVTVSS VL: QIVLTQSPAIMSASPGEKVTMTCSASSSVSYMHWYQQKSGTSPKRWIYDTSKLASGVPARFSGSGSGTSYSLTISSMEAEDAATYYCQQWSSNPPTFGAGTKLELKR	0.04 OD450
S009-F8-28.23 (antibody, human IgG1, kappa, V domains shown) VH: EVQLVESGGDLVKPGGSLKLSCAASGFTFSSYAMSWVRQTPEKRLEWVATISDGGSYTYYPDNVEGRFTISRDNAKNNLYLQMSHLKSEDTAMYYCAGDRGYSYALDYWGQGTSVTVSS VL: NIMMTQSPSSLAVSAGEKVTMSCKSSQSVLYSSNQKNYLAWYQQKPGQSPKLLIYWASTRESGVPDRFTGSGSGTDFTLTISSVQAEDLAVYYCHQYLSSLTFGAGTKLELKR	0.04 OD450
S009-F8-9.16 (antibody, human IgG1, kappa, V domains shown) VH: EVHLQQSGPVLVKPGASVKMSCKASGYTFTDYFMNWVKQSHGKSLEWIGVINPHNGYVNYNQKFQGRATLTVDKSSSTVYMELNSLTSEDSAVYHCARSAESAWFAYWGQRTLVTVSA VL: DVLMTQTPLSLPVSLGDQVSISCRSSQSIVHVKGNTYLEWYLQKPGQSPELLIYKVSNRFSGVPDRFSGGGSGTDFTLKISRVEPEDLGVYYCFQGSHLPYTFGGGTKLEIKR	0.04 OD450
S009-F8-5.15 (antibody, human IgG1, kappa, V domains shown) VH: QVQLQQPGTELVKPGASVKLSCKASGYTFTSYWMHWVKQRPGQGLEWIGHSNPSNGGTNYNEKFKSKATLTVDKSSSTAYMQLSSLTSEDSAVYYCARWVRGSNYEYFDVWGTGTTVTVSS VL: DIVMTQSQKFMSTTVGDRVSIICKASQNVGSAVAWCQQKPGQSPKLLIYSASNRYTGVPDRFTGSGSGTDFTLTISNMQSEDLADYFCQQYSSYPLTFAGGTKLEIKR	0.04 OD450
S009-F8-19.21 (antibody, human IgG1, kappa, V domains shown) VH: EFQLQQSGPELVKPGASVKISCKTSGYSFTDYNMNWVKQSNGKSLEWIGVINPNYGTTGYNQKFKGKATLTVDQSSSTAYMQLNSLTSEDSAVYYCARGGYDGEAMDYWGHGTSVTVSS VL: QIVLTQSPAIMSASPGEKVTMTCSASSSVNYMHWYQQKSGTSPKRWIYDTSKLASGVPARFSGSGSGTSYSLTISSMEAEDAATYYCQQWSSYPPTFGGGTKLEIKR	0.04 OD450
S009-F8-29.1 (antibody, human IgG1, kappa, V domains shown) VH: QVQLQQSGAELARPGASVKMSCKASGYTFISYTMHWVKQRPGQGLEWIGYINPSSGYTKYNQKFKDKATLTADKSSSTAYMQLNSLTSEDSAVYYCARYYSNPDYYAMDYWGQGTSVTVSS VL: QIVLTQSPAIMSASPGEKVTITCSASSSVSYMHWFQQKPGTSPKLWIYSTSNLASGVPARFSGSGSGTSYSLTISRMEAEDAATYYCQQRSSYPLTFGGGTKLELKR	0.04 OD450
Tab106 (YP218, hIgG1) (antibody, V domains shown, also called YP218 human IgG1 antibody) VH: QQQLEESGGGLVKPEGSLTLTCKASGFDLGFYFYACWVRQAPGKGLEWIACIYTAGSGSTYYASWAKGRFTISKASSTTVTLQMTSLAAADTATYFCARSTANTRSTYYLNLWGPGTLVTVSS VL: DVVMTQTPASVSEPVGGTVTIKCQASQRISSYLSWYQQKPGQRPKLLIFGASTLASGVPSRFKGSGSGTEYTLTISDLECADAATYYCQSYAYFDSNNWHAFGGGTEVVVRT	0.04 OD450
S009-F8-32.3 (antibody, human IgG1, kappa, V domains shown) VH: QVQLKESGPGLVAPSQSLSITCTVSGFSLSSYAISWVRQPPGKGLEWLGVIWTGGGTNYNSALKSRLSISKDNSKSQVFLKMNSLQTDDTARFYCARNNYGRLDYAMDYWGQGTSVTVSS VL: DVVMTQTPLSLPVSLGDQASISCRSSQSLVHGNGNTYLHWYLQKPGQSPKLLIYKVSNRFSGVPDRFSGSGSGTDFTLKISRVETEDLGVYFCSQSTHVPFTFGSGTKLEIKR	0.04 OD450
S009-F8-4.5 (antibody, human IgG1, kappa, V domains shown) VH: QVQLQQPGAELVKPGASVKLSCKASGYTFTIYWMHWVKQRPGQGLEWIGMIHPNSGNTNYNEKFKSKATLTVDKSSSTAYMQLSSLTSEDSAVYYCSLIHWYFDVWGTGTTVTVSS VL: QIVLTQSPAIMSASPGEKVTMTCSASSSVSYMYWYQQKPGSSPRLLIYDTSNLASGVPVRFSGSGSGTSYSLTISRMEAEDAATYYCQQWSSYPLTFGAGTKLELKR	0.05 OD450
S009-F8-7.5 (antibody, human IgG1, kappa, V domains shown) VH: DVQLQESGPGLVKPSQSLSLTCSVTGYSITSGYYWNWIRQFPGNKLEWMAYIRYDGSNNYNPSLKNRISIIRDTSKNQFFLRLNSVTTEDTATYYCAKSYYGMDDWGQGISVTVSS VL: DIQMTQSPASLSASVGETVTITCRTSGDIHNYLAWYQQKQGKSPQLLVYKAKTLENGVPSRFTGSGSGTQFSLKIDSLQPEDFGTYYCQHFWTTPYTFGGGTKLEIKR	1.18 OD450
